Give measured Emax for each item. Keep answers brief.
measuredTarget: human F508del-CFTR (Homo sapiens, UniProt P13569, DEL508-508)
Sequence (P13569 with tags, fused parts or gaps DEL508-508): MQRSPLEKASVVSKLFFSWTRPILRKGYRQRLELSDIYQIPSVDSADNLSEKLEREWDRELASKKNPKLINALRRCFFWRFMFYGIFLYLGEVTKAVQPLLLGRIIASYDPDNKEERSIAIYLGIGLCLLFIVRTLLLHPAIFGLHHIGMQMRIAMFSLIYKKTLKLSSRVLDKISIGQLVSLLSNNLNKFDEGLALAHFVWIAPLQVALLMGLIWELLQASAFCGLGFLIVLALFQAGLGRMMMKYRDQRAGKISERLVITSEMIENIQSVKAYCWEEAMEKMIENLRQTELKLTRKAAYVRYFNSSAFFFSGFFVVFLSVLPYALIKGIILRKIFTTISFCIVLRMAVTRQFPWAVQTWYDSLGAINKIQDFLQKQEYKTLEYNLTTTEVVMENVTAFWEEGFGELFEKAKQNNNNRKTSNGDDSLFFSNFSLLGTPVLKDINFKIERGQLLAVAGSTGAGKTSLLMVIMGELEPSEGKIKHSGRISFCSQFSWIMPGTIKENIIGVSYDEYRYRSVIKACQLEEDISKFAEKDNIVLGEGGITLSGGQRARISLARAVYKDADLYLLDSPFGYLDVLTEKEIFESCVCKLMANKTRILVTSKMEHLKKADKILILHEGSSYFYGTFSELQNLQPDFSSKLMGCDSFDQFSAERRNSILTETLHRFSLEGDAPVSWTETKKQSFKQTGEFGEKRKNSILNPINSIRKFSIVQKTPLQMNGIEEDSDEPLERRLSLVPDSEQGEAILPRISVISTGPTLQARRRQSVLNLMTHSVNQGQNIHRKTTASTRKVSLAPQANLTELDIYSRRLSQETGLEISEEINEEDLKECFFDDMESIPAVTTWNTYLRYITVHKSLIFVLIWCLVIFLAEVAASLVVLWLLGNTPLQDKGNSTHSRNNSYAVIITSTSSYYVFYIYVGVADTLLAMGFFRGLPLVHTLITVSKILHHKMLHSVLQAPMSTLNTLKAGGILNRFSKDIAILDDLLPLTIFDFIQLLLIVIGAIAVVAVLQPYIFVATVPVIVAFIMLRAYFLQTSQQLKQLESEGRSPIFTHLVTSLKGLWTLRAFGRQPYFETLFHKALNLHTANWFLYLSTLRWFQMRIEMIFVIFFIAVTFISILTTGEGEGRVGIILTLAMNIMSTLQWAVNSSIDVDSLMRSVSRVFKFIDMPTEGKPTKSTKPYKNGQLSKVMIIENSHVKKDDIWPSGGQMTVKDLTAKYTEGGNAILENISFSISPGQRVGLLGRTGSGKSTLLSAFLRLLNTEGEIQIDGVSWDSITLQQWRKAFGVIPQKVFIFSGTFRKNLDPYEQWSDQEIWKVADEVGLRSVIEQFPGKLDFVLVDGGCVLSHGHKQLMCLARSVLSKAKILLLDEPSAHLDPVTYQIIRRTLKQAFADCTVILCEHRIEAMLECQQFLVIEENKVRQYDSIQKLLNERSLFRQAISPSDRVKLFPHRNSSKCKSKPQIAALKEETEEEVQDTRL
methodSummary: F508del-CFTR cell surface expression (corrector activity), DiscoveRx ß-galactosidase complementation chemiluminescence assay in recombinant U2OS cell line;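 further: U2OS cells co-expressing ProLink-tagged F508del-CFTR and a membrane-anchored enzyme acceptor, where more surface CFTR restores β-galactosidase activity measured by chemiluminescence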
conditionSet: U2OS, in relation to Emax of corrector lumacaftor (=100%); arithmetic mean values
One number for each entry, in %.

# chemicalString, Emax / %
data = [
    ("COc1cccc(CCNC(=O)[C@@H]2CC(=O)N(C)[C@@H](CC(C)C)C(=O)N3CCN(S(=O)(=O)Cc4ccccc4)C[C@@H]3C(=O)N[C@H](Cc3ccccc3)COc3ccc4ccccc4c3C(=O)N2)c1", 286),
    ("COc1cccc(CCNC(=O)[C@@H]2CC(=O)N(C)[C@@H](CC(C)C)C(=O)N(C)CC(=O)N[C@H](Cc3ccccc3)COc3ccc4cnccc4c3C(=O)N2)c1", 387),
]

Now consider the entry below.
Look up Emax with human F508del-CFTR (Homo sapiens, UniProt P13569, DEL508-508) for this molecule: Cc1nc2ccc3c(c2o1)C(=O)N[C@H](C(=O)NCCc1cccc(OC(F)F)c1)CC(=O)N(C)[C@@H](CC(C)C)C(=O)N1CCOC[C@@H]1C(=O)N[C@H](Cc1ccccc1)CO3 186

Cited source for all entries: patent US20240208992A1
